Experimental details: yeast display, Sf9 membrane polyspecificity reagent, FACS + sequencing; frameworks hold sequencing errors

# Sequence string, polyreactivity (PSR sort gate)
data = [
    ("QVQLVESGGGLVQAGGSLRLSCAASGITFTDYAMGWYRQAPGKERELVAAITGSGTSTYYADSVKGRFTISRDNAKNTVYLQMNSLKPEDTAVYYCAARTRGTAYNYWGQGTQVTVSS", "high polyreactivity"),
    ("QVQLVESGGGLVQAGGSLRLSCAASGLTFRVYAMGWYRQAPGKERELVASISRTGSTTYADSVKGRFTISRDNAKNTVYLQMNSLKPEDTAVYYCNARYYVLLWDSLAREYWGQGTQVTVSS", "high polyreactivity"),
]

----------
Experimental details: yeast display, Sf9 membrane polyspecificity reagent, FACS + sequencing; frameworks hold sequencing errors
Outcome measure: polyreactivity (PSR sort gate)

Sample records with polyreactivity (PSR sort gate):
# Sequence string, polyreactivity (PSR sort gate)
data = [
    ("QVQLVESGGGLVQAGGSLRLSCAASGSTFESNAMGWYRQAPGKERELVAAISYIDTSTYYADSVKGRFTISRDNAKNTVYLQMNSLKPEDTAVYYCATDVDWAYGYQYEYWGQGTQVTVSS", "low polyreactivity"),
    ("QVQLVESGGGLVQAGGSLRLSCAASGIIFFPYAMGWYRQAPGKEREFVAAITSRGGSTYYADSVKGRFTISRDNAKNTVYLQMNSLKPEDTAVYYCAADHLGRARGPWRYNYWGQGTQVTVSS", "low polyreactivity"),
    ("QVQLVESGGGLVQAGGSLRLTCAASGSTFWFYAMGWYRQAPGKERELVATITIGGRTYADSVKGRYTISRDNAKNTVYLQMNSLKPEDTAVYYCAARRVRLEYVYGRYDYWGQGTQVTVSS", "low polyreactivity"),
    ("QVQLVESGGGLVQAGGSLRLSCAASGSTFRLYAIGWYRQAPWKERELDAAISSGGTTKYADSVKGRFTISRDNAKKTVYLQMNRLKPEDTAVYYCNAVYHWGNPGEYATLPRYDYWGQGTQVTVSS", "high polyreactivity"),
    ("QVQLVETGGGLVQAGGSLRLSCAASGNTFHPYAMGWYRQSPGKERELVAAITKSVGSTYYADSVKGRFTLSRDNAKNTVYLQMNSLKPEDTAVFYCARDSLQVFYPYASDDSWGQGTQVTVSS", "low polyreactivity"),
]

Which polyreactivity (PSR sort gate) is reported for this sequence? `QVQLVESGGGLVQAGGSLRLSCAASGRIFFTNAMGWYRQAPGKERELVAAISKSGARTYYADSVKGRFTISRDNAKNTVYLQMNSLKPEDTAVYYCAADVSVSGYGYWGQGTQVTVSS` high polyreactivity

Which polyreactivity (PSR sort gate) is reported for this sequence? `QVQLVQSGGGLVQAGGSLRLSCAASGSTFYTYGLGWYRQAPGKARQFVAAISYRGGSTYYADSVKGRFTISRDNAKNTVYLQMNSLKPEVTAVYYCYVDGVVVGTIRGGYDYWGQGTQVTVSS` low polyreactivity

Which polyreactivity (PSR sort gate) is reported for this sequence? `QVQLVESGGGLVQAGGSLRLSCAASGFTFFYNAMGWYRQAPGKEREFVAAISGRGGTTYYADSVKGRFTISRDNAKNTVYLQMNSLKPEDTAVYYCAARSVSTLRYTSRKLRYDYWGQGTQVTVSS` high polyreactivity

Which polyreactivity (PSR sort gate) is reported for this sequence? `QVQLVESGGGLVQAGGSLRLSCAASGFIFGKYAMGWYRQAPGKEREFVAAITGNGGSTYYADSVKGRFTISRDNAKNTVYLQMNSLKPEDTAVYYCNADRGYRRRSGMDYWGQGTQVTVSS` low polyreactivity

Which polyreactivity (PSR sort gate) is reported for this sequence? `QVQLVESGGGLVQAGGSLRLSCAPSGRIFGHYAMGWYRQATGKERELVAAINWRGGSTYYADSVNGRFTISRDNAKNTVYLQMNSLKPEDTAVYYCAADWTKARDSIYDYWGQGTQVTVSS` low polyreactivity

Which polyreactivity (PSR sort gate) is reported for this sequence? `QVQLVESGGGLVQAGGSLRLTCAASGRTFYIYAMGWYRPAPGKERQLVAAITYGGGRTFYADSVKGRFTISRYNAKNTVYLQMNSLKPEDTAVYYCGATVRGKRSTYDYWGQGTQVTVSS` high polyreactivity
